The entries below are paired with their reported pIC50.
# Assay system: Gamma-secretase
# Assay info: Modulation of gamma-secretase in HEK293 cells expressing guinea pig Swedish mutant SFV-APP695sw assessed as inhibition of amyloid beta-42 production after 16 to 18 hrs by HTRF assay
# Type: cell-based, Homo sapiens
pIC50: −log10 of the molar value.
Outcome measure: pIC50

                                    compound  bound_operator  number
 0  C=Cc1cc(-c2ccc(NS(=O)(=O)c3cc(C(F)(F)F)cc(C(F)(F)F)c3)cc2)ccn1               =    5.90
 1  COc1cc(NC(=O)Cc2cc(C(F)(F)F)cc(C(F)(F)F)c2)ccc1-n1cnc(C)c1               =    5.84
 2  Cc1cc(-c2ccc(NC(=O)[C@H](C)c3cccc(-c4ccc(N5CCOCC5)cc4)c3)cc2)ccn1               =    7.51
 3  Cc1cccc(C(CC(C)C)C(=O)Nc2ccc(-c3ccnc(C)c3)cc2)c1 (stereo in doubt; 50)               =    6.77
 4  Cc1cc(C)cc(C(C)C(=O)Nc2ccc(-c3ccnc(C)c3)cc2)c1 (centres undefined)               =    6.24
 5  Cc1cc(-c2ccc(/C=C3\CCCN([C@@H](C)c4ccc(F)cc4)C3=O)cc2)ccn1               =    5.82
 6  Cc1cc(-c2ccc(NC(=O)[C@@H](C)c3cccc(-c4ccc(N5CCOCC5)cc4)c3)cc2)ccn1               =    7.15
 7  O=S(=O)(Nc1ccc(-c2ccco2)cc1)c1cc(Cl)cc(Cl)c1               <    5.00
 8  Cc1cc(-c2ccc(NC(=O)C(O)c3cc(C(F)(F)F)cc(C(F)(F)F)c3)cc2)ccn1 (centres undefined)               =    5.67
 9  Cc1cc(-c2ccc(NC(=O)c3cc(Cl)cc(Cl)c3)cc2)ccn1               <    5.00
10  Cc1cc(-c2ccc(NC(=O)C(C)c3cccc(-c4ccc(N(C)C)cc4)c3)cc2)ccn1 (centres undefined)               =    6.92
11  Cc1cc(-c2ccc(NC(=O)c3cc(C(F)(F)F)cc(C(F)(F)F)c3)cc2)ccn1               <    5.00
12  Cc1cc(-c2ccc(NC(=O)C(C)c3cccc(-c4ccccc4)c3)cc2)ccn1 (centres undefined)               =    6.18
13  Cc1cc(-c2ccc(C(=O)NCCc3ccc(Cl)cc3)cc2)ccn1               =    5.67
14  Cc1cc(-c2ccc(NC(=O)C(C)c3cccc(-c4ccccc4C#N)c3)cc2)ccn1 (centres undefined)               =    6.24
15  Cc1cc(-c2ccc(NC(=O)C(C)c3cccc(-c4ccc(N5CCOCC5)cc4)c3)cc2)ccn1 (centres undefined)               =    7.15
16  COc1cc(C(=O)NCCc2ccc(Cl)cc2)ccc1-n1cnc(C)c1               =    6.38
17  CCN(CC)c1ccc(C)c(Nc2nc(-c3ccc(-n4cnc(C)c4)cc3)cs2)c1               =    6.89
18  Cc1cc(-c2ccc(NC(=O)C(C)c3cc(C(F)(F)F)cc(C(F)(F)F)n3)cc2)ccn1 (centres undefined)               <    5.00

---

# Assay info: Metabolic stability in human liver microsomes at 1 uM after 30 mins
# Type: ADME
# Experimental conditions: read-out: Stability
Field 'label' (enum: True / False). Set to True when microsomal CLint at 1 µM is strictly under 300 µL/min/mg; else False.

In [3]: df
Out[3]:
                                 smiles_repr  class
 0  O=S(=O)(Nc1ccc(-c2nnco2)cc1)c1cc(Cl)cc(Cl)c1   True
 1  O=S(=O)(Nc1ccc(-c2cc[nH]n2)cc1)c1cc(Cl)cc(Cl)c1  False
 2  O=S(=O)(Nc1ccc(-c2ncccn2)cc1)c1cc(Cl)cc(Cl)c1  False
 3  Cc1noc(-c2ccc(NS(=O)(=O)c3cc(Cl)cc(Cl)c3)cc2)n1  False
 4  Cc1cc(-c2ccc(NC(=O)c3cc(C(F)(F)F)cc(C(F)(F)F)c3)cc2)ccn1   True
 5  Cc1cc(-c2ccc(NS(=O)(=O)c3cc(C(F)(F)F)cc(C(F)(F)F)c3)cc2)ccn1  False
 6  Cc1cc(-c2ccc(NC(=O)[C@H](C)c3cc(C(F)(F)F)cc(C(F)(F)F)c3)cc2)ccn1   True
 7  Cc1cc(-c2ccc(NS(=O)(=O)c3cc(Cl)cc(Cl)c3)cc2)ccn1  False
 8  CCc1cc(-c2ccc(NS(=O)(=O)c3cc(C(F)(F)F)cc(C(F)(F)F)c3)cc2)ccn1  False
 9  CCCc1cc(-c2ccc(NS(=O)(=O)c3cc(C(F)(F)F)cc(C(F)(F)F)c3)cc2)ccn1   True
10  Cc1cc(-c2ccc(NC(=O)c3cc(Cl)cc(Cl)c3)cc2)ccn1   True

---

The entries below are paired with their reported pIC50.
# Assay system: Gamma-secretase
# Assay info: Modulation of gamma-secretase in HEK293 cells expressing guinea pig Swedish mutant SFV-APP695sw assessed as inhibition of amyloid beta-42 production after 16 to 18 hrs by HTRF assay
# Format: cell-based, Homo sapiens
pIC50: −log10 of the molar value.
Outcome measure: pIC50

>>> print(df.to_string())
                                   compound  number
0  COc1cc(NS(=O)(=O)c2cc(Cl)cc(Cl)c2)ccc1-n1cnc(C)c1    5.97
1  Cc1cc(-c2ccc(NC(=O)C(C)c3cccc(-c4ccncc4)c3)cc2)ccn1 (centres undefined)    5.92
2  Cc1cc(-c2ccc(NC(=O)C(C)c3cccc(-c4cccnc4)c3)cc2)ccn1 (centres undefined)    5.89
3  Cc1cc(-c2ccc(NC(=O)Cc3cc(C(F)(F)F)cc(C(F)(F)F)c3)cn2)ccn1    5.87

---

Notes on pIC50 obtained with Cytochrome P450 3A4 (Homo sapiens).
Sequence (P08684 whole entry): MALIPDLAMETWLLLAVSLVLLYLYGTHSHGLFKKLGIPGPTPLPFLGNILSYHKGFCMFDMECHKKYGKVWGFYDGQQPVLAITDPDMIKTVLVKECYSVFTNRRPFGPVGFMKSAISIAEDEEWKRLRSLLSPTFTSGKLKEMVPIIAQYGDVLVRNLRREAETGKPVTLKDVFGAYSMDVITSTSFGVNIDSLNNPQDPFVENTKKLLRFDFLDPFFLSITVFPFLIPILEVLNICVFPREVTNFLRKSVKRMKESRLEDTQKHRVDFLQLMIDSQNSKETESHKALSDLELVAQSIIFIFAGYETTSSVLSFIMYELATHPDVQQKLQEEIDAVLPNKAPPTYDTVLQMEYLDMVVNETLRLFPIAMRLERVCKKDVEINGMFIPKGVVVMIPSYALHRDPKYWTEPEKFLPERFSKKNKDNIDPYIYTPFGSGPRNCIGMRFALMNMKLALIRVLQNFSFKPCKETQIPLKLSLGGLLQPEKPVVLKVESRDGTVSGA
pIC50: −log10 of the molar value.
Outcome measure: pIC50

>>> df
                                smiles_repr                        assay_system  result
0  Cc1cc(-c2ccc(NC(=O)[C@@H](C)c3cc(C(F)(F)F)cc(C(F)(F)F)c3)cc2)ccn1  Cytochrome P450 3A4 (Homo sapiens)  < 4.57
1  CCCc1cc(-c2ccc(NS(=O)(=O)c3cc(C(F)(F)F)cc(C(F)(F)F)c3)cc2)ccn1  Cytochrome P450 3A4 (Homo sapiens)  < 4.57
2  Cc1cc(-c2ccc(NC(=O)[C@H](C)c3cc(C(F)(F)F)cc(C(F)(F)F)c3)cc2)ccn1  Cytochrome P450 3A4 (Homo sapiens)  < 4.57
